system: Escherichia coli; assay: Antimicrobial activity against wild type Escherichia coli transfected with pCF1 by serial dilution method
Quantity Name: MIC (µg/mL)
Lab book: enter the figure in µg/mL, no units written.

Here's what some known entries look like.
Molecule | Tested Target | Unit Of Measurement | MIC
CO[C@@]1(NC(=O)Cc2cccs2)C(=O)N2C(C(=O)O)=C(COC(N)=O)CS[C@@H]21 [CEFOXITIN] | Escherichia coli | µg/mL | 64
CC(C)(O/N=C(\C(=O)N[C@@H]1C(=O)N2C(C(=O)[O-])=C(C[n+]3ccccc3)CS[C@H]12)c1csc(N)n1)C(=O)O [CEFTAZIDIME] | Escherichia coli | µg/mL | 64
CO/N=C(\C(=O)N[C@@H]1C(=O)N2C(C(=O)O)=C(CSc3nc(=O)c(O)nn3C)CS[C@H]12)c1csc(N)n1 [CEFTRIAXONE] | Escherichia coli | µg/mL | 32

Kindly review the next molecule as well.
Prompt line: Look up and report measured MIC for this entry: CO/N=C(\C(=O)N[C@@H]1C(=O)N2C(C(=O)O)=C(COC(C)=O)CS[C@H]12)c1csc(N)n1 [CEFOTAXIME]
Response line: 64

====

assay: Inhibition of bovine family 20 beta-hexosaminidase; set-up: species or system Bos taurus
Quantity Name: IC50

Prompt line: Tell us which IC50 value is on record for CC(=O)N[C@H]1c2nc(CC(=O)O)cn2[C@H](CO)[C@@H](O)[C@@H]1O
Response line: 5.2 nM

====

target: Protein O-GlcNAcase (Homo sapiens) (UniProt O60502); assay: Inhibition of human family 84 O-GLcNAcase
Sequence (O60502 whole entry, looked up): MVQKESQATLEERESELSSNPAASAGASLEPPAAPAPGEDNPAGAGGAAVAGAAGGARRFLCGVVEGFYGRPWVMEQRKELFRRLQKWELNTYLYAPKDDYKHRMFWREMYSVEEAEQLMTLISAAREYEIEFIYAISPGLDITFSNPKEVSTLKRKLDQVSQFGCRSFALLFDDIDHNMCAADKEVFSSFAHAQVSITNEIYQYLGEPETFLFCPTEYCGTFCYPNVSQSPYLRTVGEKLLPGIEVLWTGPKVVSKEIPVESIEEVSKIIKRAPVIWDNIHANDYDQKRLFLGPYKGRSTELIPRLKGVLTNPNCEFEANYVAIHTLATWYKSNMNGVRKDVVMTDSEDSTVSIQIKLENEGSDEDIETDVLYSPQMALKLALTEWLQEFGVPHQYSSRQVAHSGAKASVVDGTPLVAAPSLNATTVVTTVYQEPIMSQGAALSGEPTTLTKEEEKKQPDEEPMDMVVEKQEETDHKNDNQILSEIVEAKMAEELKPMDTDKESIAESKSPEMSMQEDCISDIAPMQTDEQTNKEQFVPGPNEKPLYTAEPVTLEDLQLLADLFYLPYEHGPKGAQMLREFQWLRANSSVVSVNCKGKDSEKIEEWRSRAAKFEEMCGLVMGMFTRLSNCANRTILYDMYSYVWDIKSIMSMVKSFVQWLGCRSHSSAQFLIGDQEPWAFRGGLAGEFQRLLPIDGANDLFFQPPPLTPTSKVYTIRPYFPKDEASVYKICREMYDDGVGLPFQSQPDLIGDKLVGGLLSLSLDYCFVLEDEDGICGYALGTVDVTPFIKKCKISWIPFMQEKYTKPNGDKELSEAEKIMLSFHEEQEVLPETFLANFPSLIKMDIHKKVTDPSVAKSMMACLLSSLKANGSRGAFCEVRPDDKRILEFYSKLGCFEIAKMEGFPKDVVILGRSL
The reader will find reported log10(Ki) values listed item by item below.
Heads up, the numbers here are log10 of Ki in µM units.

Prompt line: Please look at CC(=O)N[C@H]1c2nc(CC(=O)O)cn2[C@H](CO)[C@@H](O)[C@@H]1O and tell me its recorded log10(Ki) on Protein O-GlcNAcase (Homo sapiens) (UniProt O60502).
Response line: -0.37

Prompt line: Provide Protein O-GlcNAcase (Homo sapiens) (UniProt O60502) log10(Ki) reading for CCCCCC(=O)N[C@H]1/C(=N/OC(=O)Nc2ccccc2)O[C@H](CO)[C@@H](O)[C@@H]1O .
Response line: 2.34

Prompt line: Lab note: record log10(Ki) of CC(=O)N[C@H]1/C(=N/O)O[C@H](CO)[C@@H](O)[C@@H]1O tested on Protein O-GlcNAcase (Homo sapiens) (UniProt O60502).
Response line: 0.81

Prompt line: Enter recorded log10(Ki) with Protein O-GlcNAcase (Homo sapiens) (UniProt O60502) for CCC(CC)C(=O)N[C@H]1/C(=N/OC(=O)Nc2ccccc2)O[C@H](CO)[C@@H](O)[C@@H]1O here.
Response line: 2.53

Prompt line: Enter measured log10(Ki), system Protein O-GlcNAcase (Homo sapiens) (UniProt O60502), for the molecule shown: CC(C)C(=O)N[C@H]1/C(=N/OC(=O)Nc2ccccc2)O[C@H](CO)[C@@H](O)[C@@H]1O
Response line: 0.95

====

organism: Homo sapiens; assay: Inhibition of human family 20 beta-hexosaminidase
// assign met if Ki falls strictly below 20 µM, else not met (ties count as not met)

Compound String | Assigned Class
CCC(=O)N[C@H]1/C(=N/OC(=O)Nc2ccccc2)O[C@H](CO)[C@@H](O)[C@@H]1O | met

Prompt line: Would you kindly verify if Ki of CCCC(=O)N[C@H]1/C(=N/OC(=O)Nc2ccccc2)O[C@H](CO)[C@@H](O)[C@@H]1O is strictly less than 20 µM?
Response line: not met

Prompt line: hey, is Ki for CC(=O)N[C@H]1/C(=N/OC(=O)Nc2ccccc2)O[C@H](CO)[C@@H](O)[C@@H]1O lower than 20 µM or not?
Response line: met

Prompt line: Lab note: confirm whether the reported Ki for this compound is below 20 µM, equality not counting. compound: CCCCC(=O)N[C@H]1/C(=N/OC(=O)Nc2ccccc2)O[C@H](CO)[C@@H](O)[C@@H]1O
Response line: not met

Prompt line: Lab note: confirm whether the reported Ki for this compound is below 20 µM, equality not counting. compound: CC(C)CC(=O)N[C@H]1/C(=N/OC(=O)Nc2ccccc2)O[C@H](CO)[C@@H](O)[C@@H]1O
Response line: not met

Prompt line: Determine whether this compound shows Ki lower than 20 µM (ties excluded): CCCCCC(=O)N[C@H]1/C(=N/OC(=O)Nc2ccccc2)O[C@H](CO)[C@@H](O)[C@@H]1O
Response line: not met

Prompt line: Hi there! Is Ki for CCC(CC)C(=O)N[C@H]1/C(=N/OC(=O)Nc2ccccc2)O[C@H](CO)[C@@H](O)[C@@H]1O below 20 µM, do you know?
Response line: not met
